target: hDAT D313N mutant (Homo sapiens, UniProt Q01959, D313N); experiment: displacement of intact-cell [3H]CFT binding, D313N mutant hDAT
Sequence (Q01959 whole entry D313N): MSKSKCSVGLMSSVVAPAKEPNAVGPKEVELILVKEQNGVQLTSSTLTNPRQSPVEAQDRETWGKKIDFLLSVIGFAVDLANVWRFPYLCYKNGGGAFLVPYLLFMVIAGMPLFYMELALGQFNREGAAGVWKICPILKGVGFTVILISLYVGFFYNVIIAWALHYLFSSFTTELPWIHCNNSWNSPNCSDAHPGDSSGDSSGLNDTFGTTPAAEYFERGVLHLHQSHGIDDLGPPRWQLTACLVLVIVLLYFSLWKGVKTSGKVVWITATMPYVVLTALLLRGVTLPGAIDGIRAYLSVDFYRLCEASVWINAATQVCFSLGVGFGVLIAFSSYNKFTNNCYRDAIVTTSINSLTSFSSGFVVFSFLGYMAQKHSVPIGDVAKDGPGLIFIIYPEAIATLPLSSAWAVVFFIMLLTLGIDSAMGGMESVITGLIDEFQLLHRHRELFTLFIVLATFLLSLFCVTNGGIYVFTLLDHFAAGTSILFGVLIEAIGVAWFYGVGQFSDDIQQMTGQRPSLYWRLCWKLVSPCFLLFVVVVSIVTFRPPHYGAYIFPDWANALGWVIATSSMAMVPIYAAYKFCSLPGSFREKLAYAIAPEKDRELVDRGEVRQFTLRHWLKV
measurement-name: Ki (nM)

compound | measurement-name | val
CC(CCc1ccc(O)cc1)NCCc1ccc(O)c(O)c1 (stereo not drawn) [(dl)-dobutamine, dobutamine, reference compound] | Ki | 257
Oc1ccc(CCNCCCCCCNCCc2ccccc2)cc1O [dopexamine, reference compound] | Ki | 192

----------
biological target: wild-type hDAT (Homo sapiens); test: displacement of intact-cell [3H]CFT binding, wild-type hDAT; settings: read-out: hDAT Binding Ki, WT; inhibition of [3H]CFT binding, intact HEK-hDAT cells, 21°C, 15 min; listed as hydroxydobutamine
pKi: −log10 of the molar value.

molecule | pKi
CC(CCc1ccc(O)c(O)c1)NCCc1ccc(O)c(O)c1 [Compound D-278, hydroxydobutamine] | ~7.24

----------
Each entry below carries its reported fold increase in binding affinity over monovalent DA.
molecular target: UniProtKB Q01959; assay: displacement of intact-cell [3H]CFT binding, wild-type hDAT; conditions: [3H]CFT binding, WT hDAT, relative to dopamine
measurement-name: fold increase in binding affinity over monovalent DA (fold)

molecule | unit-string | val
Oc1ccc(CCNCCCNCCc2ccc(O)c(O)c2)cc1O | fold | 5
Oc1ccc(CCNCCCCCNCCc2ccc(O)c(O)c2)cc1O | fold | 51
CCCCCCNCCc1ccc(O)c(O)c1 | fold | 2.5
CC(CCc1ccc(O)c(O)c1)NCCc1ccc(O)c(O)c1 [Compound D-278, hydroxydobutamine] | fold | 74
Oc1ccc(CCNCCCCCCCCNCCc2ccc(O)c(O)c2)cc1O | fold | 82
CC(Cc1ccccc1)NCCCNCCc1ccc(O)c(O)c1 (stereo not drawn) | fold | 13
Oc1ccc(CCNCCCCCCNCCc2ccc(O)c(O)c2)cc1O | fold | 61
CC(Cc1ccccc1)NCCCCCCNCCc1ccc(O)c(O)c1 (stereo not drawn) | fold | 42
CC(CCc1ccc(O)cc1)NCCc1ccc(O)c(O)c1 (stereo not drawn) [(dl)-dobutamine, dobutamine, reference compound] | fold | 21

----------
target: wild-type hDAT (Homo sapiens); assay: displacement of intact-cell [3H]CFT binding, wild-type hDAT; conditions: hDAT Binding Ki, WT, inhibition of [3H]CFT binding, intact HEK-hDAT cells, 21°C, 15 min

compound | unit-string | Ki
Oc1ccc(CCNCCCCCCNCCc2ccccc2)cc1O [dopexamine, reference compound] | nM | 96.9
CC(CCc1ccc(O)cc1)NCCc1ccc(O)c(O)c1 (stereo not drawn) [(dl)-dobutamine, dobutamine, reference compound] | nM | 196

----------
molecular target: wild-type hDAT (Homo sapiens, UniProt Q01959); assay: displacement of intact-cell [3H]CFT binding, wild-type hDAT; settings: read-out: hDAT Binding Ki, WT; inhibition of [3H]CFT binding, intact HEK-hDAT cells, 21°C, 15 min
Sequence (Q01959 whole entry): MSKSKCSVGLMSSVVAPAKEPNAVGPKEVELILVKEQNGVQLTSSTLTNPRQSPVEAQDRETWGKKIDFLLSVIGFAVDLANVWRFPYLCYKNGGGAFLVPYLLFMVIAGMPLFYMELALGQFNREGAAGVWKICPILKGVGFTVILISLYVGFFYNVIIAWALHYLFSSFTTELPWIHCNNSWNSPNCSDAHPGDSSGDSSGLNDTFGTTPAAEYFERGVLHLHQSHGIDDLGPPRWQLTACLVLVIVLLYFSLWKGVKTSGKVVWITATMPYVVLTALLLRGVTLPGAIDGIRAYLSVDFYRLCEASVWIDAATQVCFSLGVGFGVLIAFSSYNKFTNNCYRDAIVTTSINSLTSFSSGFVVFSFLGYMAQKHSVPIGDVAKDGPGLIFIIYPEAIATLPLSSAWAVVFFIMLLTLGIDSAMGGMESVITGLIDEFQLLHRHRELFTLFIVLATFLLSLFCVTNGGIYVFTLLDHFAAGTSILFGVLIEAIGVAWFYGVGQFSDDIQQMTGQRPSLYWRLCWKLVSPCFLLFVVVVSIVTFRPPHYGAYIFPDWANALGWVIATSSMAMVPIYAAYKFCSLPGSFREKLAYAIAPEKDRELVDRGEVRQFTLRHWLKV
Each entry below carries its reported Ki.

compound | system-under-test | Ki, µM
CC(Cc1ccccc1)NCCCCCCNCCc1ccc(O)c(O)c1 (stereo not shown) | wild-type hDAT (Homo sapiens, UniProt Q01959) | 0.101
CN[C@@H](C)Cc1ccccc1 [(d)-methamphetamine, reference compound] | wild-type hDAT (Homo sapiens, UniProt Q01959) | 0.341
CC(Cc1ccccc1)NCCCCCCNCCc1ccccc1 (stereo not shown) | wild-type hDAT (Homo sapiens, UniProt Q01959) | 0.0978
CC(CCc1ccc(O)c(O)c1)NCCc1ccc(O)c(O)c1 [Compound D-278, hydroxydobutamine] | wild-type hDAT (Homo sapiens, UniProt Q01959) | 0.058
